Experiment: A549 NSCLC cell proliferation inhibitors – ATP luminescence, human non-small cell lung line, primary screen (AID 371);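 further: compound exposure lasted 72 h before the ATP read; 0% = untreated cell signal and 100% = no luminescence left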
Settings: at 10 µM, hits give high values
Out of some 3,300 compounds screened, about 280 (8.5%) were called active. The full list was thinned out, with actives kept by preference.
endpoint-name: growth inhibition (%)

[[record]]
compound = "CCOC(=O)c1[nH]c2ccc(OC)cc2c1NC(=O)CCN1CCCC(C)C1 (stereo not drawn)"
endpoint_name = "growth inhibition"
unit_abbreviation = "%"
result_value = 6.76

[[record]]
compound = "COc1cc(=O)[nH]c(=O)n1CC(=O)c1ccccc1"
endpoint_name = "growth inhibition"
unit_abbreviation = "%"
result_value = -1.03

[[record]]
compound = "OCCNC1=NCCN1"
endpoint_name = "growth inhibition"
unit_abbreviation = "%"
result_value = -1.49

[[record]]
compound = "CCCSc1nnc(NC(=O)Nc2ccc(F)cc2)s1"
endpoint_name = "growth inhibition"
unit_abbreviation = "%"
result_value = 70.3

[[record]]
compound = "C=COC(=O)CSc1nc(-c2cccs2)ccc1C#N"
endpoint_name = "growth inhibition"
unit_abbreviation = "%"
result_value = 5.33

[[record]]
compound = "COc1ccc(-n2c(SCC(N)=O)nc3sc4c(c3c2=O)CCN(C)C4)cc1"
endpoint_name = "growth inhibition"
unit_abbreviation = "%"
result_value = 8.23

[[record]]
compound = "O=c1[nH]c(-c2ccccn2)nc2ccccc12"
endpoint_name = "growth inhibition"
unit_abbreviation = "%"
result_value = 57.6

[[record]]
compound = "CCSc1nnc(NC(=O)C(CC)(C(F)(F)F)C(F)(F)F)s1"
endpoint_name = "growth inhibition"
unit_abbreviation = "%"
result_value = 66

[[record]]
compound = "CCSC(SCC)[C@H](O)[C@@H](O)[C@H](O)[C@H](O)CO"
endpoint_name = "growth inhibition"
unit_abbreviation = "%"
result_value = -2.15

[[record]]
compound = "CCN(CC)c1ncc(C)c(=O)[nH]1"
endpoint_name = "growth inhibition"
unit_abbreviation = "%"
result_value = -0.05

[[record]]
compound = "CCOC(=O)c1ccc(N2CC(O)=C(c3nc4ccccc4c(=O)[nH]3)C2=N)cc1"
endpoint_name = "growth inhibition"
unit_abbreviation = "%"
result_value = 2.08

[[record]]
compound = "CCCCN(CCCC)c1nc2ccccc2nc1C(C#N)C(=O)NCCCOC (stereo not drawn)"
endpoint_name = "growth inhibition"
unit_abbreviation = "%"
result_value = 9.29

[[record]]
compound = "CCNC(=O)N(C(=O)NCC)n1c(C)nnc1C"
endpoint_name = "growth inhibition"
unit_abbreviation = "%"
result_value = -3.85


====

Test: A549 NSCLC cell proliferation inhibitors – ATP luminescence, human non-small cell lung line, primary screen (AID 371);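 further: compound exposure lasted 72 h before the ATP read; 0% = untreated cell signal and 100% = no luminescence left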
Settings: at 10 µM, hits give high values
Hit rate of the full screen: of about 3,300 compounds, about 280 (8.5%) were called active. Only a selection was taken, and actives are over-represented in it overall.
Could you label it condition met if measured growth inhibition is 8% or higher, and condition not met otherwise?

[[record]]
molecule = "CC(C)C1Cc2c(sc3c2c(=O)n(Cc2ccccc2)c2nncn32)CO1 (stereo not given)"
class_assignment = "condition met"

[[record]]
molecule = "Cc1c(Cl)c(C(F)(F)F)nn1CC(=O)N1CCSCC1"
class_assignment = "condition met"

[[record]]
molecule = "C=CCSc1nnc2n(-c3ccccc3OC)c(=O)c3c4c(sc3n12)CCC4"
class_assignment = "condition met"

[[record]]
molecule = "Cc1cccc2c1NC(C)CC2C (stereo not given)"
class_assignment = "condition not met"

[[record]]
molecule = "c1ccc2c(c1)CCN(c1ncnc3c1[nH]c1ccccc13)C2"
class_assignment = "condition met"

[[record]]
molecule = "Cc1ccc2[nH]c3c(N4CCOCC4)ncnc3c2c1"
class_assignment = "condition met"

[[record]]
molecule = "N#C/C(C(=O)NCc1ccco1)=C1/SC(Cc2ccc(Cl)cc2)C(=O)N1c1ccccc1 (stereo not given)"
class_assignment = "condition not met"

[[record]]
molecule = "CCC(C(=O)OCCN(CC)CC)c1ccccc1 (stereo not given)"
class_assignment = "condition not met"

[[record]]
molecule = "Cc1cccc(CN2CCN(C(c3ccccc3)c3ccc(Cl)cc3)CC2)c1 (stereo not given)"
class_assignment = "condition not met"

[[record]]
molecule = "c1ccc2c(c1)[nH]c1c(N3CCC4(CC3)OCCO4)ncnc12"
class_assignment = "condition met"

[[record]]
molecule = "COc1ccccc1-c1nnc2sc(COc3ccccc3)nn12"
class_assignment = "condition met"

[[record]]
molecule = "COCCOC(=O)c1c(C)nc(SCC(=O)Nc2ccc(C)cc2)c(C#N)c1-c1ccco1"
class_assignment = "condition not met"

[[record]]
molecule = "N#Cc1nc(COc2ccc(Cl)cc2)oc1N1CCN(Cc2ccccc2)CC1"
class_assignment = "condition met"

[[record]]
molecule = "CCCCCCCCNC(C)C(O)c1ccc(SC(C)C)cc1 (stereo not given)"
class_assignment = "condition met"


====

Experiment: A549 NSCLC cell proliferation inhibitors – ATP luminescence, human non-small cell lung line, primary screen (AID 371);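 further: compound exposure lasted 72 h before the ATP read; 0% = untreated cell signal and 100% = no luminescence left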
Conditions: at 10 µM, hits give high values
Out of some 3,300 compounds screened, about 280 (8.5%) were called active. Only a selection was taken, and actives are over-represented in it overall.
growth inhibition overview
endpoint-name: growth inhibition (%)

[[record]]
compound = "OCCN=C(c1ccccc1)C12CN3CN(CN(C3)C1)C2"
result_value = -0.01

[[record]]
compound = "COC(=O)c1cccc(Nc2cc(C)nc(-c3ccccc3O)n2)c1"
result_value = 17.6

[[record]]
compound = "CSc1nc(N)c(C#N)c(-c2ccccc2Cl)c1C#N"
result_value = 60.5

[[record]]
compound = "CCOc1ccc(C2=Nn3c(nnc3-c3ccccc3OC)SC2)cc1"
result_value = 66

[[record]]
compound = "CCOC(=O)C1=C(C)N=C2SC(C)C(=O)N2C1c1cccc(F)c1 (stereo not drawn)"
result_value = -4.33

[[record]]
compound = "N=c1c2c(-c3ccccc3)c(-c3ccccc3)n(Cc3ccccc3)c2ncn1CCCn1ccnc1"
result_value = 91.5

[[record]]
compound = "CCOc1ccc(C2=Nn3c(nnc3-c3cccnc3)SC2)cc1"
result_value = 22.4

[[record]]
compound = "COc1ccc(C2=Nn3c(nnc3-c3ccccn3)SC2)cc1"
result_value = 50.1

[[record]]
compound = "COc1ccc(OC)c(C2=Nn3c(nnc3-c3ccco3)SC2)c1"
result_value = 23.2

[[record]]
compound = "COc1ccc(OC)c(C2C(C(=O)c3sc(C)nc3C)=C(O)C(=O)N2CCN2CCOCC2)c1 (stereo not drawn)"
result_value = 5.82

[[record]]
compound = "COc1ccc(CCCNC(=O)CC#N)cc1OC"
result_value = 0.39

[[record]]
compound = "CN(CCNC(=O)c1ccc(/C=N/O)nc1)Cc1ccccc1"
result_value = -0.01

[[record]]
compound = "Nc1nonc1-c1noc(-c2ccccc2)n1"
result_value = 8.32

[[record]]
compound = "CCOc1ccc(C2=Nn3c(nnc3-c3ccccn3)SC2)cc1"
result_value = 42.3

[[record]]
compound = "COc1ccccc1N=Cc1nc(-c2ccccc2)oc1OC(C)=O"
result_value = 51.8

[[record]]
compound = "CCOC(=O)c1ccc(N=Cc2nc(-c3ccccc3)oc2OC(C)=O)cc1"
result_value = 55.3

[[record]]
compound = "O=c1c(C=NCCCn2ccnc2)c(-c2ccccc2)[nH]n1-c1nc2ccccc2s1"
result_value = 17

[[record]]
compound = "CC(=O)Oc1oc(-c2ccccc2)nc1/C=N/c1ccccn1"
result_value = 17.6


====

Test: A549 NSCLC cell proliferation inhibitors – ATP luminescence, human non-small cell lung line, primary screen (AID 371);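 further: compound exposure lasted 72 h before the ATP read; 0% = untreated cell signal and 100% = no luminescence left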
Settings: at 10 µM
The campaign covered roughly 3,300 compounds. About 280 (8.5%) were called active.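 How the source made its calls: active means mean growth inhibition over the two runs of 50% or more; inactive means mean growth inhibition under 50%.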 The entries come from a sample that favours actives as a whole.
Classes used: active, inactive

[[record]]
compound = "O=C(OCCN1CCOCC1)c1ccc2c(c1)OCCO2"
class_assignment = "inactive"

[[record]]
compound = "Cc1nn(CC(N)=O)c(=O)c2ccccc12"
class_assignment = "inactive"

[[record]]
compound = "COC(=O)c1ccccc1OCc1cccc(C)n1"
class_assignment = "inactive"

[[record]]
compound = "COc1cc(C2C(C#N)=C(N)Oc3cc(C)n(CCN4CCOCC4)c(=O)c32)cc(OC)c1OC (centres undefined)"
class_assignment = "inactive"

[[record]]
compound = "COc1ccc(OC)c(C2=Nn3c(nnc3C3CCCCC3)SC2)c1"
class_assignment = "inactive"

[[record]]
compound = "O=c1[nH]c2ccccc2n1CCCN1CCN(C(c2ccccc2)c2ccccc2)CC1"
class_assignment = "active"

[[record]]
compound = "O=C(C1=C(O)C(=O)N(CCCN2CCOCC2)C1c1ccccn1)c1cccs1 (centres undefined)"
class_assignment = "inactive"

[[record]]
compound = "COc1ccccc1-c1nnc2sc(C3CCCCC3)nn12"
class_assignment = "inactive"

[[record]]
compound = "CCOC(=O)C1=C(N)N2C(=O)CSC2=C(C(=O)OC)C1"
class_assignment = "inactive"

[[record]]
compound = "COc1cccc(C2C(C#N)=C(N)Oc3cc(C)[nH]c(=O)c32)c1OC (centres undefined)"
class_assignment = "inactive"

[[record]]
compound = "CCOC(=O)CSc1nnc(C)c(=O)[nH]1"
class_assignment = "inactive"

[[record]]
compound = "CCCCCn1c2nc3ccccc3nc2c2c(=O)n(CC(C)C)cnc21"
class_assignment = "inactive"

[[record]]
compound = "COc1ccc(C2/C(=C(/O)c3cnn(-c4ccccc4)c3C)C(=O)C(=O)N2CCN(C)C)cc1OC (centres undefined)"
class_assignment = "inactive"

[[record]]
compound = "O=C(O)CCCC(=O)N1CCN(C(c2ccccc2)c2ccccc2)CC1"
class_assignment = "inactive"

[[record]]
compound = "CCCCN(CCCC)C(=O)CSc1nnc2n(C)c(=O)c3c4c(sc3n12)CCCC4"
class_assignment = "active"

[[record]]
compound = "CCCc1[nH]n(-c2nc3ccccc3s2)c(=O)c1C=NCCN1CCOCC1"
class_assignment = "inactive"

[[record]]
compound = "NC(=O)CSc1nnc2n(-c3ccccc3)c(=O)c3c4c(sc3n12)CCCCC4"
class_assignment = "inactive"

[[record]]
compound = "C(=C\\c1ccccc1)/CN1CCN(C(c2ccccc2)c2ccccc2)CC1"
class_assignment = "inactive"

[[record]]
compound = "Cc1nnc2n(-c3ccccc3)c(=O)c3c4c(sc3n12)COC(C)(C)C4"
class_assignment = "inactive"

